Target: T1, hMcm10-ID (Homo sapiens, UniProt Q7L590 237-436)
T1 sequence: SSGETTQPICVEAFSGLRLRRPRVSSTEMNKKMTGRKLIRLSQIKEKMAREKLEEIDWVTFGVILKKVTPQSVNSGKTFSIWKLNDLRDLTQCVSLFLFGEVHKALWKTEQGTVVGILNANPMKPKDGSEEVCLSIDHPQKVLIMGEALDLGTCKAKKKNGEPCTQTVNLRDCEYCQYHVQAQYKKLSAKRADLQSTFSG
Test: fluorescence polarization; FP: 20 mM Tris-HCl, 100 mM NaCl, 5% glycerol, 0.01% Triton, pH 7.5, RT 60 min, 12.5 nM probe (0.1% DMSO in HTS)
Settings: protein: recombinant; label: 5'-6-FAM; single strand
pKd: −log10 of the molar value.
value_kind: pKd

1) ATGGTAGGCA (ssDNA) [5'-6FAM 10-mer]
5.64
